experiment: Volume of distribution at steady state in rat at 5 umole/kg, iv; format: ADME, organism-based; details: in vivo, read-out: Vdss
metric name: Vd (L/kg)
One number for each entry, in L/kg.

Entry under review: CC(C)(N)C(=O)N[C@H](COCc1ccccc1)c1nnnn1CCOC(=O)NCCCCO . Reported Vd?
6.4

---

experiment: AUC in rat at 10 umole/kg, iv; assay type: ADME, organism-based; settings: plasma
metric name: AUC (µM·h)
Answers are plain numbers, in µM·h.

Can you share its AUC? I mean this compound: CC(C)(N)C(=O)N[C@H](CCC(F)(F)c1ccccc1)c1nnnn1CCOC(=O)NCCCCO
0.901

---

assay: Cmax in rat at 10 umole/kg, po; type: ADME, organism-based; design: route oral; details: in vivo
metric name: Cmax
Param answer (str): number followed by unit.

So what's the measured Cmax for this one? CC(C)(N)C(=O)N[C@H](CCC(F)(F)c1ccccc1)c1nnnn1CCOC(=O)NCCCCO
166 nM

---

Kindly supply the reported pEC50 values for the records listed here.
target: Growth hormone secretagogue receptor type 1 (Homo sapiens); test: Agonist activity at GHS receptor
Sequence (Q92847 whole entry): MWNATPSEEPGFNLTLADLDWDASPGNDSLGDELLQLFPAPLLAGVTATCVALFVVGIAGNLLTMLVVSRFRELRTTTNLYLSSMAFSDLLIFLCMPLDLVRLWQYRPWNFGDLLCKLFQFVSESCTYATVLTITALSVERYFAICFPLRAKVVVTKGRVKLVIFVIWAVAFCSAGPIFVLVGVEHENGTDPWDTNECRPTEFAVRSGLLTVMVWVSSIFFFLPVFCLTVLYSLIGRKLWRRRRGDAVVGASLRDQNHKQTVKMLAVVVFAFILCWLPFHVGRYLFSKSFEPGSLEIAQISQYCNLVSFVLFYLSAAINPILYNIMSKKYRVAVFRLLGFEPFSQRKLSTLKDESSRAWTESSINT
Numbers only, as −log10 of the molar value.

CC(C)(N)C(=O)N[C@H](CCC(F)(F)c1ccccc1)c1nnnn1CCOC(=O)NCCCCO : 9.57

# input for lookup
I have this molecule here, CC(C)(N)C(=O)N[C@H](CCC(F)(F)c1ccccc1)c1nnnn1CCC#N , and I need its recorded pEC50.
9.05

---

assay: Clearance in rat at 5 umole/kg, iv; type: ADME, organism-based; conditions: in vivo
metric name: clearance (mL/min/kg)
Numbers only, in mL/min/kg.

Suppose we examine the molecule CC(C)(N)C(=O)N[C@H](COCc1ccccc1)c1nnnn1CCOC(=O)NCCCCO ; what clearance value has been reported?
213

---

test: Mean residence time in rat at 10 umole/kg, iv; assay type: ADME, organism-based; conditions: in vivo
metric name: MRT (h)
Numbers only, in h.

Tell me the measured MRT of CC(C)(N)C(=O)N[C@H](CCC(F)(F)c1ccccc1)c1nnnn1CCOC(=O)NCCCCO , please.
1.4

---

test: Tmax in rat at 15 umole/kg, po; assay type: ADME, organism-based; details: in vivo
metric name: Tmax
Answer by giving the amount and then stating its unit.

GET /values?readout=Tmax&item= CC(C)(N)C(=O)N[C@H](COCc1ccccc1)c1nnnn1CCOC(=O)NCCCCO
42 min

---

test: Oral bioavailability in rat at 15 umole/kg; format: ADME, organism-based; conditions: in vivo
metric name: bioavailability (%)
Give bare numbers, in %.

What measured bioavailability goes with CC(C)(N)C(=O)N[C@H](COCc1ccccc1)c1nnnn1CCOC(=O)NCCCCO ?
9.2

---

test: Volume of distribution at steady state in rat at 10 umole/kg, iv; format: ADME, organism-based; details: in vivo, read-out: Vdss
metric name: Vd (L/kg)
Numbers only, in L/kg.

What value of Vd has been recorded for this entry: CC(C)(N)C(=O)N[C@H](CCC(F)(F)c1ccccc1)c1nnnn1CCOC(=O)NCCCCO
16

---

assay: Clearance in rat at 10 umole/kg, iv; type: ADME, organism-based; conditions: in vivo
metric name: clearance (mL/min/kg)
Numbers only, in mL/min/kg.

For CC(C)(N)C(=O)N[C@H](CCC(F)(F)c1ccccc1)c1nnnn1CCOC(=O)NCCCCO , what is its reported clearance?
183
